Provenance of the data: ChEMBL document CHEMBL3044939

- Tested on: Spodoptera litura
- EXPERIMENT: Growth regulating activity of Spodoptera litura assessed as fifth-instar time at 0.5 ug/cm'2 of castor leaf area after 24 hr
- Assay type: functional
READOUT NAME: Time (days)
Your answer should be a plain number; it is taken to be in days.

CC1=C[C@H](O)[C@@H](O)[C@@]2(C)[C@H]1CC(=O)[C@@]13CO[C@]4(C)[C@@H](OC(=O)[C@@H]41)[C@H](O)[C@@H]32 :: 3.8
C/C=C(\C)C(=O)O[C@H]1C[C@@H](OC(C)=O)[C@@]2(C(=O)OC)CO[C@H]3[C@@H](O)[C@@](C)([C@]45O[C@@]4(C)[C@@H]4C[C@H]5O[C@@H]5OC=C[C@@]54O)[C@H]4[C@]1(CO[C@]4(O)C(=O)OC)[C@@H]32 :: 3.3
CC1=CC(=O)[C@@H](O)[C@@]2(C)[C@H]1[C@@H](O)[C@H]1OC(=O)C[C@]3(O)[C@]14CO[C@@]3(C)[C@@H](O)[C@H](O)[C@H]24 :: 3.4
CC1=CC(=O)[C@@H](O)[C@@]2(C)[C@H]1CC(=O)[C@@]13CO[C@]4(C)[C@@H](OC(=O)[C@@H]41)[C@H](O)[C@@H]32 :: 3.4

For the next question, use this compound.
Query string: Name the recorded Time for `CC1=CC(=O)[C@@]2(C)C1=CC(=O)[C@@]13CO[C@]4(C)[C@@H](OC(=O)[C@@H]41)[C@H](O)[C@H]23` .
Result string: 3.6

----------
Here, each record is paired with measured Time data.
- Test system: Spodoptera litura
- EXPERIMENT: Growth regulating activity of Spodoptera litura assessed as fourth-instar time at 0.5 ug/cm'2 of castor leaf area after 24 hr
- Assay type: functional
Your answer should be a plain number; it is taken to be in days.

Example compounds with recorded Time:
CC1=CC(=O)[C@@H](O)[C@@]2(C)[C@H]1CC(=O)[C@@]13CO[C@]4(C)[C@@H](OC(=O)[C@@H]41)[C@H](O)[C@@H]32 [SAMADERINS B] :: 3.8
CC1=CC(=O)[C@@]2(C)C1=CC(=O)[C@@]13CO[C@]4(C)[C@@H](OC(=O)[C@@H]41)[C@H](O)[C@H]23 [SAMADERINS A] :: 3.6
CC1=CC(=O)[C@@H](O)[C@@]2(C)[C@H]1[C@@H](O)[C@H]1OC(=O)C[C@]3(O)[C@]14CO[C@@]3(C)[C@@H](O)[C@H](O)[C@H]24 [INDAQUASSIN C] :: 3.8
C/C=C(\C)C(=O)O[C@H]1C[C@@H](OC(C)=O)[C@@]2(C(=O)OC)CO[C@H]3[C@@H](O)[C@@](C)([C@]45O[C@@]4(C)[C@@H]4C[C@H]5O[C@@H]5OC=C[C@@]54O)[C@H]4[C@]1(CO[C@]4(O)C(=O)OC)[C@@H]32 [AZADIRACHTIN A] :: 4.1

Query string: Name the recorded Time for CC1=C[C@H](O)[C@@H](O)[C@@]2(C)[C@H]1CC(=O)[C@@]13CO[C@]4(C)[C@@H](OC(=O)[C@@H]41)[C@H](O)[C@@H]32 [SAMADERINS C] .
Result string: 4.4

----------
- Test system: Spodoptera litura
- EXPERIMENT: Growth regulating activity of Spodoptera litura assessed as sixth-instar time at 0.5 ug/cm'2 of castor leaf area after 24 hr
- Format: functional
Quick rule: Time of at least 5 days means y, below that means n.

Query string: Confirm if Time reported for the compound CC1=CC(=O)[C@@]2(C)C1=CC(=O)[C@@]13CO[C@]4(C)[C@@H](OC(=O)[C@@H]41)[C@H](O)[C@H]23 [SAMADERINS A] is 5 days or above.
Result string: n

Query string: Would you mind doing CC1=C[C@H](O)[C@@H](O)[C@@]2(C)[C@H]1CC(=O)[C@@]13CO[C@]4(C)[C@@H](OC(=O)[C@@H]41)[C@H](O)[C@@H]32 [SAMADERINS C] as well?
Result string: n

Query string: Would you mind doing C/C=C(\C)C(=O)O[C@H]1C[C@@H](OC(C)=O)[C@@]2(C(=O)OC)CO[C@H]3[C@@H](O)[C@@](C)([C@]45O[C@@]4(C)[C@@H]4C[C@H]5O[C@@H]5OC=C[C@@]54O)[C@H]4[C@]1(CO[C@]4(O)C(=O)OC)[C@@H]32 [AZADIRACHTIN A] as well?
Result string: y

----------
- Tested on: Spodoptera litura
- EXPERIMENT: Antifeedant activity against Spodoptera litura at 5 ug/cm'2 of castor leaf area relative to control
- Assay type: functional
Quick rule: Activity of at least 60% means MET, below that means NOT MET.

# example entries with known answers
C/C=C(\C)C(=O)O[C@H]1C[C@@H](OC(C)=O)[C@@]2(C(=O)OC)CO[C@H]3[C@@H](O)[C@@](C)([C@]45O[C@@]4(C)[C@@H]4C[C@H]5O[C@@H]5OC=C[C@@]54O)[C@H]4[C@]1(CO[C@]4(O)C(=O)OC)[C@@H]32 :: MET
CC1=C[C@H](O)[C@@H](O)[C@@]2(C)[C@H]1CC(=O)[C@@]13CO[C@]4(C)[C@@H](OC(=O)[C@@H]41)[C@H](O)[C@@H]32 :: NOT MET
CC1=CC(=O)[C@@H](O)[C@@]2(C)[C@H]1CC(=O)[C@@]13CO[C@]4(C)[C@@H](OC(=O)[C@@H]41)[C@H](O)[C@@H]32 :: MET
CC1=CC(=O)[C@@]2(C)C1=CC(=O)[C@@]13CO[C@]4(C)[C@@H](OC(=O)[C@@H]41)[C@H](O)[C@H]23 :: NOT MET

Query string: Confirm if Activity reported for the molecule `CC1=CC(=O)[C@@H](O)[C@@]2(C)[C@H]1[C@@H](O)[C@H]1OC(=O)C[C@]3(O)[C@]14CO[C@@]3(C)[C@@H](O)[C@H](O)[C@H]24` is 60% or above.
Result string: MET

----------
- System: Spodoptera litura
- EXPERIMENT: Growth regulating activity of Spodoptera litura assessed as pupal time at 0.5 ug/cm'2 of castor leaf area after 24 hr
- Format: functional
READOUT NAME: Time (days)
Your answer should be a plain number; it is taken to be in days.

Example compounds with recorded Time:
CC1=C[C@H](O)[C@@H](O)[C@@]2(C)[C@H]1CC(=O)[C@@]13CO[C@]4(C)[C@@H](OC(=O)[C@@H]41)[C@H](O)[C@@H]32 [SAMADERINS C] :: 9.7
C/C=C(\C)C(=O)O[C@H]1C[C@@H](OC(C)=O)[C@@]2(C(=O)OC)CO[C@H]3[C@@H](O)[C@@](C)([C@]45O[C@@]4(C)[C@@H]4C[C@H]5O[C@@H]5OC=C[C@@]54O)[C@H]4[C@]1(CO[C@]4(O)C(=O)OC)[C@@H]32 [AZADIRACHTIN A] :: 9.3
CC1=CC(=O)[C@@H](O)[C@@]2(C)[C@H]1[C@@H](O)[C@H]1OC(=O)C[C@]3(O)[C@]14CO[C@@]3(C)[C@@H](O)[C@H](O)[C@H]24 [INDAQUASSIN C] :: 8.5
CC1=CC(=O)[C@@]2(C)C1=CC(=O)[C@@]13CO[C@]4(C)[C@@H](OC(=O)[C@@H]41)[C@H](O)[C@H]23 [SAMADERINS A] :: 8.8

For the next question, use this compound.
Query string: # returns recorded Time (system: Spodoptera litura) for CC1=CC(=O)[C@@H](O)[C@@]2(C)[C@H]1CC(=O)[C@@]13CO[C@]4(C)[C@@H](OC(=O)[C@@H]41)[C@H](O)[C@@H]32 [SAMADERINS B]
Result string: 9.3

----------
- Test system: Spodoptera litura
- EXPERIMENT: Antifeedant activity against Spodoptera litura at 1 ug/cm'2 of castor leaf area relative to control
- Type: functional
Quick rule: Activity of at least 30% means Satisfied, below that means Not satisfied.

CC1=CC(=O)[C@@H](O)[C@@]2(C)[C@H]1[C@@H](O)[C@H]1OC(=O)C[C@]3(O)[C@]14CO[C@@]3(C)[C@@H](O)[C@H](O)[C@H]24 :: Satisfied

Query string: Confirm if Activity reported for the molecule `CC1=CC(=O)[C@@]2(C)C1=CC(=O)[C@@]13CO[C@]4(C)[C@@H](OC(=O)[C@@H]41)[C@H](O)[C@H]23` is 30% or above.
Result string: Not satisfied

Query string: Would you mind doing `CC1=CC(=O)[C@@H](O)[C@@]2(C)[C@H]1CC(=O)[C@@]13CO[C@]4(C)[C@@H](OC(=O)[C@@H]41)[C@H](O)[C@@H]32` as well?
Result string: Not satisfied

Query string: Would you mind doing `C/C=C(\C)C(=O)O[C@H]1C[C@@H](OC(C)=O)[C@@]2(C(=O)OC)CO[C@H]3[C@@H](O)[C@@](C)([C@]45O[C@@]4(C)[C@@H]4C[C@H]5O[C@@H]5OC=C[C@@]54O)[C@H]4[C@]1(CO[C@]4(O)C(=O)OC)[C@@H]32` as well?
Result string: Satisfied

Query string: Would you mind doing `CC1=C[C@H](O)[C@@H](O)[C@@]2(C)[C@H]1CC(=O)[C@@]13CO[C@]4(C)[C@@H](OC(=O)[C@@H]41)[C@H](O)[C@@H]32` as well?
Result string: Not satisfied
